Molecular target: IGF-1R (Homo sapiens, UniProt P08069)
Sequence (P08069 31-1367): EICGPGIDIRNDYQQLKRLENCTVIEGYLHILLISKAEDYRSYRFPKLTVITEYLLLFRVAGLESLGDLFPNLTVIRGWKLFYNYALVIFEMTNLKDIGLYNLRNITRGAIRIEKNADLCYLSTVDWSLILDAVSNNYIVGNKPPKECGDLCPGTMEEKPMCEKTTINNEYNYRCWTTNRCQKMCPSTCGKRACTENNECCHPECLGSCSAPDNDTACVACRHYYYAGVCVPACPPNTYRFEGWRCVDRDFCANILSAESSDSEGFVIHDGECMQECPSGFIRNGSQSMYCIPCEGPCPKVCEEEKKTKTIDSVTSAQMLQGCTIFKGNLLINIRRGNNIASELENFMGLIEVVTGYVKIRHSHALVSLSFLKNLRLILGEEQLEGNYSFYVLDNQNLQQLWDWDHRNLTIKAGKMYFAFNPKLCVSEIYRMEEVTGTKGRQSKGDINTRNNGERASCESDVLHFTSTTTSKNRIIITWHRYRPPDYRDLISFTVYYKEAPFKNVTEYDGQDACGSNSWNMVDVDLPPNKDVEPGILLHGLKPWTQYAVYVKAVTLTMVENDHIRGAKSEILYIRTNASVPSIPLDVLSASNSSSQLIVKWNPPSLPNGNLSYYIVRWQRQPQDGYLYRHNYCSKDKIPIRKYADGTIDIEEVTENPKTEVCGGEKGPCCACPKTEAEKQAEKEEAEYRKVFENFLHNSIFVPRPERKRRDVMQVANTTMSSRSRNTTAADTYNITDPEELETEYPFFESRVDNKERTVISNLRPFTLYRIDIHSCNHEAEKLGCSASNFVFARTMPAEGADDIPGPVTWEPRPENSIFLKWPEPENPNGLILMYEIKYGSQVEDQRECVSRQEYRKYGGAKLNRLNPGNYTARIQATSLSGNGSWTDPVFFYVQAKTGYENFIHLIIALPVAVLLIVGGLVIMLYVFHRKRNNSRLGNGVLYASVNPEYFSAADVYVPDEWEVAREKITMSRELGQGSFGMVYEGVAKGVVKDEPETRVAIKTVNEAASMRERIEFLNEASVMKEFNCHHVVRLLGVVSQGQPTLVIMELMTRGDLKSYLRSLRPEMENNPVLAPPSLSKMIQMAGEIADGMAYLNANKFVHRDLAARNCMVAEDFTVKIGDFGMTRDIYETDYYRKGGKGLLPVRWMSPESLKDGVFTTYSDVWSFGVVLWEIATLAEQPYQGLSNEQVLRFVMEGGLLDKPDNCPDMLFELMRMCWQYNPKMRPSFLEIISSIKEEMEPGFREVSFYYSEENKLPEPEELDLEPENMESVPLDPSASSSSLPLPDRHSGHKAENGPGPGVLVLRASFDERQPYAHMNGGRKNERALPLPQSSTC
Assay: IGF-1-induced proliferation of NIH3T3 cells transfected with human IGF-1R cDNA (3H-thymidine)
Type: cell-based
Design: expressed in transfected cells; host or cells: NIH3T3
Settings: NIH3T3-IGF-1R cells; IGF-1 50 ng/ml
Where no end group is shown, it is not given here.
testReadout: pIC50
Give bare numbers, as −log10 of the molar value.

I looked up TVLSNL [APG-206.9, TVLSNL] and its pIC50 for IGF-1R (Homo sapiens, UniProt P08069) was 7.70
